- experiment description: in vitro
- test context: rat, plasma
property label: fraction unbound at 10 µM

# input smiles, value
measured = [
    ("CCC(CC)c1cc(N[C@H]2CC[C@H](N)C2)n2nccc2n1", 0.59),
]

---

- experiment description: in vitro
- test context: mouse, plasma
property label: fraction unbound at 10 µM

# input smiles, property label, value
data = [
    ("CCC(CC)c1cc(N[C@H]2CC[C@H](N)C2)n2nccc2n1", "fraction unbound at 10 µM", 0.52),
]

Values compiled from ChEMBL document CHEMBL5375946.
